All figures here come from the supplement of paper PMC5998384.

- Tested on: HeLa Kyoto
- EXPERIMENT_DESCRIPTION: thermal stability score vs G1/S (z-score of summed log2 fold changes over temperatures); higher = more thermally stable than in G1/S
- CONDITION_SUMMARY: cell cycle stage: early G1 (4.5 h after nocodazole release)
MEASURE_NAME: thermal stability score
Reply: number alone, nothing else.

Prompt line: Recorded thermal stability score of MAAAAGRSLLLLLSSRGGGGGGAGGCGALTAGCFPGLGVSRHRQQQHHRTVHQRIASWQNLGAVYCSTVVPSDDVTVVYQNGLPVISVRLPSRRERCQFTLKPISDSVGVFLRQLQEEDRGIDRVAIYSPDGVRVAASTGIDLLLLDDFKLVINDLTYHVRPPKRDLLSHENAATLNDVKTLVQQLYTTLCIEQHQLNKERELIERLEDLKEQLAPLEKVRIEISRKAEKRTTLVLWGGLAYMATQFGILARLTWWEYSWDIMEPVTYFITYGSAMAMYAYFVMTRQEYVYPEARDRQYLLFFHKGAKKSRFDLEKYNQLKDAIAQAEMDLKRLRDPLQVHLPLRQIGEKD [MCU] , please.
Response line: 0.0563

###

- Test system: HeLa Kyoto
- EXPERIMENT_DESCRIPTION: melting temperature (median over replicates), in situ; higher = more thermally stable
- CONDITION_SUMMARY: cell cycle stage: G1/S
Consider the following sequences and their measured melting temperature readings.

{"SEQUENCE_ENTRY": "MACAAVMIPGLLRCSVGAIRIEAASLRLTLSTLRHLTLTSIMKSKRKTDHMERTASVLRREIVSAAKVCGAASESPSVKSLRLLVADQDFSFKAGQWVDFFIPGVSVVGGFSICSSPRLLEQERVIELAVKYTNHPPALWVHNTCTLDCEVAVRVGGEFFFDPQPADASRNLVLIAGGVGINPLLSILRHAADLLREQANKRNGYEIGTIKLFYSAKNTSELLFKKNILDLVNEFPEKIACSLHVTKQTTQINAELKPYITEGRITEKEIRDHISKETLFYICGPPPMTDFFSKQLENNHVPKEHICFEKWW [OXNAD1]", "EXPERIMENTAL_RESULT": "53.9 °C"}
{"SEQUENCE_ENTRY": "MEEKQILCVGLVVLDVISLVDKYPKEDSEIRCLSQRWQRGGNASNSCTVLSLLGAPCAFMGSMAPGHVADFLVADFRRRGVDVSQVAWQSKGDTPSSCCIINNSNGNRTIVLHDTSLPDVSATDFEKVDLTQFKWIHIEGRNASEQVKMLQRIDAHNTRQPPEQKIRVSVEVEKPREELFQLFGYGDVVFVSKDVAKHLGFQSAEEALRGLYGRVRKGAVLVCAWAEEGADALGPDGKLLHSDAFPPPRVVDTLGAGDTFNASVIFSLSQGRSVQEALRFGCQVAGKKCGLQGFDGIV [KHK]", "EXPERIMENTAL_RESULT": "54.2 °C"}

API: the following record is the query input.
Prompt line: Recorded melting temperature of MAAAEEGCSVGAEADRELEELLESALDDFDKAKPSPAPPSTTTAPDASGPQKRSPGDTAKDALFASQEKFFQELFDSELASQATAEFEKAMKELAEEEPHLVEQFQKLSEAAGRVGSDMTSQQEFTSCLKETLSGLAKNATDLQNSSMSEEELTKAMEGLGMDEGDGEGNILPIMQSIMQNLLSKDVLYPSLKEITEKYPEWLQSHRESLPPEQFEKYQEQHSVMCKICEQFEAETPTDSETTQKARFEMVLDLMQQLQDLGHPPKELAGEMPPGLNFDLDALNLSGPPGASGEQCLIM [G3V3G9] , please.
Response line: 51.1 °C
